Just for reference, ChEMBL document CHEMBL4732159 is where these values come from.

Assay: Apparent permeability across basal to apical membrane in human Caco-2 cells
property: Papp B→A (×10⁻⁶ cm/s)

C[C@H]1CN(Cc2cc(Cl)cc(NC(=O)CC(CCC(=O)O)c3ccccc3)c2Cl)CCN1C(=O)C1CCCC1 (stereo in doubt; 12a); 45
Cc1c(CN2CCN(C(=O)C3CCCC3)[C@@H](C)C2)cc(F)cc1NC(=O)CC(CCC(=O)O)c1ccccc1 (stereo in doubt; 6a); 39

---

Measured Papp A→B by item
Assay: Apparent permeability across apical to basal membrane in human Caco-2 cells
property: Papp A→B

C[C@H]1CN(Cc2cc(Cl)cc(NC(=O)CC(CCC(=O)O)c3ccccc3)c2Cl)CCN1C(=O)C1CCCC1 (stereo in doubt; 12a); 13 ×10⁻⁶ cm/s
Cc1c(CN2CCN(C(=O)C3CCCC3)[C@@H](C)C2)cc(F)cc1NC(=O)CC(CCC(=O)O)c1ccccc1 (stereo in doubt; 6a); 1.3 ×10⁻⁶ cm/s

---

Measured CLH by item
Assay: Intrinsic clearance in human liver microsomes
property: CLH (µL/min/mg)

C[C@H]1CN(Cc2cc(Cl)cc(NC(=O)CC(CCC(=O)O)c3ccccc3)c2Cl)CCN1C(=O)C1CCCC1 (stereo in doubt; 12a); 31
Cc1c(CN2CCN(C(=O)C3CCCC3)[C@@H](C)C2)cc(F)cc1NC(=O)CC(CCC(=O)O)c1ccccc1 (stereo in doubt; 6b); 21
Cc1c(CN2CCN(C(=O)C3CCCC3)[C@@H](C)C2)cc(F)cc1NC(=O)CCc1ccccc1; 1900

---

Assay: in vivo
Details: mouse, po, 2 umol/kg
property: AUC

Cc1c(CN2CCN(C(=O)C3CCCC3)[C@@H](C)C2)cc(F)cc1NC(=O)CC(CCC(=O)O)c1ccccc1 (stereo in doubt; 6a); 0.2 µM·h
C[C@H]1CN(Cc2cc(Cl)cc(NC(=O)CC(CCC(=O)O)c3ccccc3)c2Cl)CCN1C(=O)C1CCCC1 (stereo in doubt; 12a); 4 µM·h

---

Experiment: in vivo
Details: mouse, po, 2 umol/kg
Measured bioavailability by item
property: bioavailability (%)

C[C@H]1CN(Cc2cc(Cl)cc(NC(=O)CC(CCC(=O)O)c3ccccc3)c2Cl)CCN1C(=O)C1CCCC1 (stereo in doubt; 12a); 100
Cc1c(CN2CCN(C(=O)C3CCCC3)[C@@H](C)C2)cc(F)cc1NC(=O)CC(CCC(=O)O)c1ccccc1 (stereo in doubt; 6a); 46

---

Assay: Half life in mouse at 2 umol/kg, po
Details: in vivo
property: half-life (h)

Cc1c(CN2CCN(C(=O)C3CCCC3)[C@@H](C)C2)cc(F)cc1NC(=O)CC(CCC(=O)O)c1ccccc1 (stereo in doubt; 6a); 1.5
C[C@H]1CN(Cc2cc(Cl)cc(NC(=O)CC(CCC(=O)O)c3ccccc3)c2Cl)CCN1C(=O)C1CCCC1 (stereo in doubt; 12a); 1.5
